Assay Comment: Solubility of pharmaceutical (Cl) in hydrophilic solvent system at 37° C, 24 h shaking
Type: physicochemical
Test Conditions: organic solvent or mixture; 60% PEG 400, 37° C
Recorded Endpoint: solubility at 24 h (µg/mL)

Molecule	Reported Value
C#C[C@]1(OC(C)=O)CC[C@H]2[C@@H]3CCC4=C[C@@H](OC(C)=O)CC[C@@H]4[C@H]3CC[C@@]21C [ethynodiol diacetate]	437

---

Assay Comment: Solubility of pharmaceutical (Cl) in hydrophilic solvent system at 37° C, 24 h shaking
Assay type: physicochemical
Test Conditions: organic solvent or mixture; 50% PEG 400, 37° C

Compound	Units Text	solubility at 24 h
C#C[C@]1(OC(C)=O)CC[C@H]2[C@@H]3CCC4=C[C@@H](OC(C)=O)CC[C@@H]4[C@H]3CC[C@@]21C [ethynodiol diacetate]	µg/mL	156
